Experimental target: UniProt P25779
Test details: Inhibition of recombinant Trypanosoma cruzi cruzain at 5 uM using Z-FR-AMC as substrate preincubated for 10 mins followed by substrate addition and measured at 12 sec interval for 5 mins by fluorimetric analysis relative to control
Assay setup: time 15.0 min
Measurement kind: inhibition (%)

Compound	Measurement kind	Result
Cc1ccc(Nc2nc(-c3ccccn3)cs2)cc1	inhibition	19.8
CCOc1ccc(C2N(C)c3ccccc3N2C)cc1	inhibition	48.3
COc1cc(C(=O)ON=C(N)Cc2cccc3ccccc23)cc(OC)c1OC	inhibition	51.1
Oc1ccc(C(=C(Cl)Cl)c2ccc(O)cc2)cc1	inhibition	60.5
CCCc1c(CC)c(=N)c2ccccc2n1C	inhibition	54.8
COc1ccc(C(=O)NC(c2ccccc2Cl)c2cc(Cl)c3cccnc3c2O)cc1 (stereo not drawn)	inhibition	100
CCC(C)NCC(O)(c1ccc(Cl)cc1)c1ccc(Cl)cc1 (stereo not drawn)	inhibition	67.2
Cn1c(=O)c2cc(C(=O)NCCCN3CCCCCC3)sc2c2ccccc21	inhibition	50.5
COc1ccc(CNC(=O)c2cc3c(=O)n4ccccc4nc3n(CCc3ccccc3)c2=N)cc1	inhibition	69.9
COCCN(C(=O)Cc1cccs1)C(C(=O)NCc1ccc(OC)cc1)c1ccc(C(C)C)cc1 (stereo not drawn)	inhibition	67.5
CC(O)(c1ccc(Cl)cc1)C(CN1CCCCC1)c1ccccc1 (stereo not drawn)	inhibition	54.1
Cc1nc2ccccc2c(O)c1CC=C(Cl)Cl	inhibition	99.1
O=C(Nc1ccc(-c2nc3cc(NC(=O)c4ccc(Cl)cc4)ccc3[nH]2)cc1)c1ccc(Cl)cc1	inhibition	35.3
Cc1cc(NC(=O)c2cccc(C(F)(F)F)c2)n(-c2nc(-c3ccc4c(c3)OCO4)cs2)n1	inhibition	42
CC(=O)c1ccc(NC(=O)CSc2nc(-c3ccccc3Cl)ns2)cc1	inhibition	76.6
COc1ccc(C2c3ccc4ccccc4c3Oc3ncn(CCCN(C)C)c(=N)c32)cc1 (stereo not drawn)	inhibition	73.2
c1ccc(CNc2nc(Nc3ccccc3)nc3ccccc23)cc1	inhibition	82.3
Clc1ccc2[nH]c3c(NCCCN4CCOCC4)ncnc3c2c1	inhibition	62.5
COc1ccc(/C=C2/SC(=Nc3ccccc3)NC2=O)cc1	inhibition	73.8
CCCOCc1cc(CN2CCN(c3cccc(Cl)c3)CC2)c(O)c2ncccc12	inhibition	75.3
Cc1ccc(C(=O)c2oc3ccc4c(C)cc(=O)oc4c3c2C)cc1	inhibition	69
CCOC(=O)c1c(C)n(-c2ccccc2)c2ccc(OC(=O)c3cc(OC)c(OC)c(OC)c3)cc12	inhibition	51.7
Cc1ccc(N2C(=O)C3C(C2=O)C2(c4ccccc4)C(=O)C3(c3ccccc3)C(c3ccccc3)=C2c2ccccc2)cc1 (stereo not drawn)	inhibition	33.6
Fc1ccc2[nH]c3c(NCCCN4CCOCC4)ncnc3c2c1	inhibition	63.9
O=C(O)C1Cc2c([nH]c3ccccc23)C(c2ccc(Cl)cc2Cl)N1 (stereo not drawn)	inhibition	9.5
O=C1c2ccccc2-c2nnc(-c3ccc(Br)cc3)cc21	inhibition	96.3
O=C(Nc1cccc(-c2nc3ccccc3[nH]2)c1)c1cccc(NC(=O)c2ccco2)c1	inhibition	94.7
O=C(CSc1ccc2nnc(-c3cccc(F)c3)n2n1)Nc1ccc2c(c1)OCO2	inhibition	67.7
Cc1ccnc(NC(c2cccc(OCc3ccccc3)c2)c2ccc3cccnc3c2O)c1 (stereo not drawn)	inhibition	51.3
Cn1c(=O)n(C)c2cc(CNCCNc3ccnc4cc(Cl)ccc34)ccc21	inhibition	79.7
COc1cc(OC)c(N(C)C(=O)c2cc3c(s2)-c2ccccc2S(=O)(=O)C3)cc1Cl	inhibition	38.1
COc1cccc(C(=O)NC(c2ccc(C)cc2)c2cc(Cl)c3cccnc3c2O)c1 (stereo not drawn)	inhibition	54.5
COc1nc(Nc2ccc(C(C)C)cc2)nc(OC)n1	inhibition	44.2
Cc1ccccc1OCCSc1nc2ccc(NC(=O)c3ccccc3)cc2s1	inhibition	76.7
COc1ccc(/C=C2/SC(Nc3ccc(F)cc3)=NC2=O)c(OC)c1	inhibition	54.4
Cc1cc(Nc2ccc(C)c(Cl)c2)n2nc(C(F)(F)F)nc2n1	inhibition	47.2
CC(C)OCc1cc(CN2CCN(c3cccc(Cl)c3)CC2)c(O)c2ncccc12	inhibition	98.2
CCCCCn1c(=N)n(CC(O)COc2cccc(C)c2)c2ccccc21 (stereo not drawn)	inhibition	87.2
CCCCCCc1cc2cc(-c3csc(/C=C/c4ccccc4)n3)c(=O)oc2cc1O	inhibition	38.3
Nc1ccc(-c2nc3cc(Cc4ccc5[nH]c(-c6ccc(N)cc6)nc5c4)ccc3[nH]2)cc1	inhibition	98.2
CN(N=O)C1=C(NC2CCCCC2)C(=O)c2ccccc2C1=O	inhibition	68.2
CCc1ccc(Nc2cc(C)c3ccc(O)cc3n2)cc1	inhibition	55
CCOc1cccc(C(=O)Nc2ccc(-c3nc4ccccc4[nH]3)cc2)c1	inhibition	72.7

* * *

The compounds listed here are annotated with their inhibition.
Experimental target: UniProtKB P25779
Test details: Inhibition of recombinant Trypanosoma cruzi cruzain at 100 uM preincubated with BSA for 5 mins followed by incubation with enzyme for 5 mins followed by substrate addition relative to control
Assay setup: time 10.0 min

Compound	inhibition, %
Cl.Cl.Clc1cc(Br)ccc1-c1ccc(CNCC2CCNCC2)o1	90.1
Cn1c(=O)n(C)c2cc(CNCCNc3ccnc4cc(Cl)ccc34)ccc21	87.8
COCCNC(=O)c1ccc(OC2CCN(Cc3ccc(F)c(F)c3)CC2)c(Cl)c1	64.7
COCCNCC(O)Cn1c2ccc(Cl)cc2c2cc(Cl)ccc21 (centres undefined)	61.3

* * *

Experimental target: Rhodesain (Trypanosoma brucei rhodesiense) (UniProt Q95PM0)
Sequence (Q95PM0 1-450): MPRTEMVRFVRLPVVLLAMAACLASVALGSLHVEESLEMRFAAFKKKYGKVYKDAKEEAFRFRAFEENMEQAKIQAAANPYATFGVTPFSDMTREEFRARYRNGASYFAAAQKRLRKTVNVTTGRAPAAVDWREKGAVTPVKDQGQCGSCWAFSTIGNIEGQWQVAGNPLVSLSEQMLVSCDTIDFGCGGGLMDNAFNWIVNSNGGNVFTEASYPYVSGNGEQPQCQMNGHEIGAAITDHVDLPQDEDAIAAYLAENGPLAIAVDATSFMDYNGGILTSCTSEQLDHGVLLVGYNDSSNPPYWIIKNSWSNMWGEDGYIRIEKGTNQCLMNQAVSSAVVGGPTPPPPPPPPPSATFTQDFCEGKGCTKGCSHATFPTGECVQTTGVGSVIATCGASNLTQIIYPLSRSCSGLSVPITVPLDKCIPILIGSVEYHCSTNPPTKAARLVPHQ
Test details: Inhibition of recombinant Trypanosoma brucei rhodesain expressed in Pichia pastoris at 5 uM using Z-FR-AMC as substrate and measured at 12 sec interval for 5 mins without preincubation by fluorimetric analysis relative to control
Measurement kind: inhibition

Compound	Result
CCOC(=O)c1c(C)n(-c2ccccc2)c2ccc(OC(=O)c3cc(OC)c(OC)c(OC)c3)cc12	38.5%
c1ccc(-c2ccc(-c3nc4ccccc4[nH]3)cc2)cc1	42.2%
Cn1c(=O)n(C)c2cc(CNCCNc3ccnc4cc(Cl)ccc34)ccc21	47.7%
COCCNCC(O)Cn1c2ccc(Cl)cc2c2cc(Cl)ccc21 (stereo unspecified)	33.6%
CC(O)(c1ccc(Cl)cc1)C(CN1CCCCC1)c1ccccc1 (stereo unspecified)	13.9%
Cc1cc(Nc2ccc(C)c(Cl)c2)n2nc(C(F)(F)F)nc2n1	27.7%
COc1cc(C(=O)ON=C(N)Cc2cccc3ccccc23)cc(OC)c1OC	0%
O=C(NC1CCN(Cc2ccccc2)CC1)c1cc(C(=O)NC2CCN(Cc3ccccc3)CC2)cc(C(=O)NC2CCN(Cc3ccccc3)CC2)c1	45.4%
Cn1c(=O)c2cc(C(=O)NCCCN3CCCCCC3)sc2c2ccccc21	22.4%
O=C(O)C1Cc2c([nH]c3ccccc23)C(c2ccc(Cl)cc2Cl)N1 (stereo unspecified)	0.7%
Cl.Cl.Clc1cc(Br)ccc1-c1ccc(CNCC2CCNCC2)o1	31.3%

* * *

Experimental target: Cruzipain (Trypanosoma cruzi)
Test details: Inhibition of recombinant Trypanosoma cruzi cruzain at 100 uM preincubated for 10 mins in absence of Triton X-100 relative to control
The compounds listed here are annotated with their inhibition.

Compound	Experimental target	Value unit	inhibition
COCCNC(=O)c1ccc(OC2CCN(Cc3ccc(F)c(F)c3)CC2)c(Cl)c1	Cruzipain (Trypanosoma cruzi)	%	98.3
Cn1c(=O)n(C)c2cc(CNCCNc3ccnc4cc(Cl)ccc34)ccc21	Cruzipain (Trypanosoma cruzi)	%	64.5
Cl.Cl.Clc1cc(Br)ccc1-c1ccc(CNCC2CCNCC2)o1	Cruzipain (Trypanosoma cruzi)	%	96.8
COCCNCC(O)Cn1c2ccc(Cl)cc2c2cc(Cl)ccc21 (centres undefined)	Cruzipain (Trypanosoma cruzi)	%	100

* * *

The compounds listed here are annotated with their inhibition.
Experimental target: Cruzipain (Trypanosoma cruzi) (UniProt P25779)
Sequence (P25779 123-467 limits assumed): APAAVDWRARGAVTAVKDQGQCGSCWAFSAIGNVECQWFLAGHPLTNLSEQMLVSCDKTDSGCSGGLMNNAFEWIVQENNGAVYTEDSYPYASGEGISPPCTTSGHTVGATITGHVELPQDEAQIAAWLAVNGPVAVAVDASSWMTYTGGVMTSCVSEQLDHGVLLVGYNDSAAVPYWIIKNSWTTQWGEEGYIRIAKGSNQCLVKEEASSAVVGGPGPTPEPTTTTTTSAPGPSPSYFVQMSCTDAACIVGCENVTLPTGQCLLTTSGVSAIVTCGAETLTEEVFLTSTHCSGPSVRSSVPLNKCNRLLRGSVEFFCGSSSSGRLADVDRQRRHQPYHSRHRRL
Test details: Inhibition of recombinant Trypanosoma cruzi cruzain at 5 uM using Z-FR-AMC as substrate and measured at 12 sec interval for 5 mins without preincubation by fluorimetric analysis relative to control
Measurement kind: inhibition (%)

Compound	Experimental target	Value unit	Result
O=C(Nc1ccc(-c2nc3ccccc3[nH]2)cc1)c1ccc(Cl)c(Cl)c1	Cruzipain (Trypanosoma cruzi) (UniProt P25779)	%	17.4
COc1cc(OC)c(N(C)C(=O)c2cc3c(s2)-c2ccccc2S(=O)(=O)C3)cc1Cl	Cruzipain (Trypanosoma cruzi) (UniProt P25779)	%	6.4
COc1ccc(/C=C2/SC(=Nc3ccccc3)NC2=O)cc1	Cruzipain (Trypanosoma cruzi) (UniProt P25779)	%	43.1
CCCOCc1cc(CN2CCN(c3cccc(Cl)c3)CC2)c(O)c2ncccc12	Cruzipain (Trypanosoma cruzi) (UniProt P25779)	%	37.1
COc1ccc(-c2nc3cc(Cc4ccc5[nH]c(-c6ccc(OC)cc6)nc5c4)ccc3[nH]2)cc1	Cruzipain (Trypanosoma cruzi) (UniProt P25779)	%	100
Clc1ccc2[nH]c3c(NCCCN4CCOCC4)ncnc3c2c1	Cruzipain (Trypanosoma cruzi) (UniProt P25779)	%	67
CCOC(=O)c1cnc2ccc(CC)cc2c1O	Cruzipain (Trypanosoma cruzi) (UniProt P25779)	%	6
COc1cc(C(=O)ON=C(N)Cc2cccc3ccccc23)cc(OC)c1OC	Cruzipain (Trypanosoma cruzi) (UniProt P25779)	%	14
COc1ccccc1C(=O)ON=C(N)Cc1cccc2ccccc12	Cruzipain (Trypanosoma cruzi) (UniProt P25779)	%	32
COCCNCC(O)Cn1c2ccc(Cl)cc2c2cc(Cl)ccc21 (stereo unspecified)	Cruzipain (Trypanosoma cruzi) (UniProt P25779)	%	18.4
O=C(Nc1cccc(-c2nc3ccccc3[nH]2)c1)c1cccc(NC(=O)c2ccco2)c1	Cruzipain (Trypanosoma cruzi) (UniProt P25779)	%	96.7
